B1: Flag-CNK^2–549 [Drosophila] / V5-KSR [Drosophila] (parent)
chain 1: MSSNNNAPASAPDTGSTNANDPISGSLSVDSNLVIIQDMIDLSANHLEGLRTQCAISSTLTQQEIRCLESKLVRYFSELLLAKMRLNERIPANGLVPHTTGNELRQWLRVVGLSQGTLTACLARLTTLEQSLRLSDEEIRQLLADSPSQREEEELRRLTRAMQNLRKCMESLESGTAASNNDPEQWHWDSWDRPTHIHRGSVGNIGLGNNSTASPRTHHRQHGVKGKNSALANSTNFKSGRQSPSATEELNSTQGSQLTLTLTPSPPNSPFTPSSGLSSSLNGTPQRSRGTPPPARKHQTLLSQSHVQVDGEQLARNRLPTDPSPDSHSSTSSDIFVDPNTNASSGGSSSNVLMVPCSPGVGHVGMGHAIKHRFTKALGFMATCTLCQKQVFHRWMKCTDCKYICHKSCAPHVPPSCGLPREYVDEFRHIKEQGGYASLPHVHGAAKGSPLVKKSTLGKPLHQQHGDSSSPSSSCTSSTPSSPALFQQRERELDQAGSSSSANLLPTPSLGKHQPSQFNFPNVTVTSSGGSGGVSLISNEPVPEQFPTAPATANGGLDSLVSSSNGHMSSLIGSQTSNASTAATLTGSLVNSTTTTSTCSFFPRKLSTAGVDKRTPFTSEYTDTHKSNDSDKTVSLSGSASTDSDRTPVRVDSTEDGDSGQWRQNSISLKEWDIPYGDLLLLERIGQGRFGTVHRALWHGDVAVKLLNEDYLQDEHMLETFRSEVANFKNTRHENLVLFMGACMNPPYLAIVTSLCKGNTLYTYIHQRREKFAMNRTLLIAQQIAQGMGYLHAREIIHKDLRTKNIFIENGKVIITDFGLFSSTKLLYCDMGLGVPHNWLCYLAPELIRALQPEKPRGECLEFTPYSDVYSFGTVWYELICGEFTFKDQPAESIIWQVGRGMKQSLANLQSGRDVKDLLMLCWTYEKEHRPQFARLLSLLEHLPKKRLARSPSHPVNLSRSAESVF
chain 2: AYINIAEWTPDQVTDWIKGLDESMKGYLYEFSKQEIGGRALLNIRPYELENLGMLRIGHQEIVLEAVENLRNFHYHLKNDNLQFMALHVATAAKNLHRELARNHAESTKIDTRILHDITRTIATLKPLVGSLERTPFRKQEMYREYCGNVLKCGLELATIAHRDRFALQPVPAIRQSAERLENLANFVIQDISDPMVLQPASLNLVTLKKRESELGFNIESSYNGIHRVTDIKYNSPAHNSGKIEDGDEIVQINYQTVVGWQHRTVLEHLREALPDVVLTVKKRPKHTKMFGQIYMQPYRLPSKKRNMAARWAAQMPSPRAAFLTLDTEQLATGGTGSAVPDPSKSLSSEKREVLTKANPVSSASDSDSSCSDIPTPTDPKLAAREIRLYYPKPRALLQRRNTICGCEYLSLKNSDLVVPSWHERKPGIGSPTNCDPGSPSIRDKSISFGYGLEMAARPTTCIGIAGDTSTDKARRMFHEARKLKQLTEDSQREFLVDRYKPGVSKVVRFDAKEDYVMKNEKFICNVENTILETFEPIPFADEGDEDA

variants of: B1; test: GST pull-down, immunoblot quantification; settings: with V5-KSR [Drosophila], S2 cells, GST-HYP, Myc-MEK co-expressed, captured via GST-HYP, anti-V5 (KSR) blot, parent: 1
parameterMeasured: ratio to parent

The examples below pair each entry with its known result.
[[record]]
mutationdescriptor = "chain 2 K109E"
parametermeasured = "ratio to parent"
val = 0.92

[[record]]
mutationdescriptor = "chain 2 T135F"
parametermeasured = "ratio to parent"
val = 0.95

[[record]]
mutationdescriptor = "chain 2 H263A"
parametermeasured = "ratio to parent"
val = 0.9

[[record]]
mutationdescriptor = "chain 2 L267R"
parametermeasured = "ratio to parent"
val = 0.89

[[record]]
mutationdescriptor = "chain 2 A40F"
parametermeasured = "ratio to parent"
val = 0.93


1 = chain 2 R264E
2 = chain 2 M196E
Param metric = ratio to parent; output whichever of 1 , 2 has the minimum value. Identify your selection by its label. 2

From: paper PMC11257983
